- System tested: recombinant HIV-1 IN ST activity (Human immunodeficiency virus type 1 group M subtype B)
- Method: biochemical
Items are presented alongside their recorded IC50.

Input line: Find IC50 (recombinant HIV-1 IN ST activity (Human immunodeficiency virus type 1 group M subtype B)) for the entry CCOC(=O)C(=O)CC(=O)/C=C/c1cccn1Cc1ccc(Cl)cc1Cl [7w]
Output line: > 111 µM

Input line: And what about the molecule CCOC(=O)C(=O)CC(=O)/C=C/c1cccn1Cc1ccc(C#N)cc1 [7l] ?
Output line: > 111 µM

====

- System tested: HIV-1 RT-associated RNase H activity (Human immunodeficiency virus type 1 group M subtype B)
Metric name: IC50

CCOC(=O)C(=O)CC(=O)/C=C/c1cccn1Cc1ccccc1OCC ... > 100 µM

Turning now to a further record.
Input line: Request the reported IC50 associated with CCOC(=O)C(=O)CC(=O)/C=C/c1cccn1Cc1ccccc1OC
Output line: > 100 µM
